System: M14 melanoma
Assay: NCI tumour cell line growth inhibition, 48 h
valueKind: TGI

Entry CC1=NNC(=O)C1C(CC(=O)c1c[nH]c2ccccc12)C(=O)O (stereo unspecified) : reported TGI = ? > 100 µM

Looking for the measured TGI of CC12CCC(O)CC1CCC1C2CCC2(C)C(C(=O)CC(O)C(F)(F)F)CCC12 (stereo unspecified) , can you help? > 100 µM

Which TGI reading was recorded for the compound `COc1cc(/C=C/c2ccc(OC)c(OC)c2)cc(OC)c1` ? 67.9 µM

Entry `Nc1ccc(S2(c3ccc(N)cc3)C=C(c3ccccc3)C(c3ccccc3)=C2)cc1` has what TGI? > 100 µM

Item under review: `O=C(O)c1ccc(OCc2nc3cc(C(F)(F)F)ccc3nc2-c2ccccc2)cc1` . Reported TGI? > 100 µM

Item `COc1cc2c3c(c1OC)C1(C=CC(=O)C=C1)C[C@H]3N(C)CC2` has what recorded TGI? > 100 µM

Which TGI value belongs to N#CC1CC2(C1)OCCS2 (stereo unspecified) ? > 100 µM

Please look up its TGI: Cc1ccc2c(c1)C(=O)C1(C2)Cc2cccc(C)c2C1=O (stereo unspecified) > 100 µM

# TGI lookup, item O=C1CC2CCCC23CC2(CCN13)OCCO2 (stereo unspecified) > 100 µM

What value of TGI has been recorded for this entry: O=C1CC2c3ccccc3CCC2c2ccccc21 (stereo unspecified) 33.4 µM

Using the record for `O=C(/C=C\c1ccc(NCc2ccc(C(=O)O)cc2)cc1)CCl` , report its TGI. 35.3 µM

* * *

Test system: ACHN renal
Experiment: NCI tumour cell line growth inhibition, 48 h
valueKind: TGI

Reported TGI, molecule `CN(C)CCN1C(=O)c2ccc3c4c(ccc(c24)C1=O)C(=O)N(CCN=C=S)C3=O` : ____ 0.123 µM

// query TGI value for entry `CC/C=C\C[C@H]1C/C=C2/C(=O)C=C[C@@H]2C/C=C\CCCC(=O)O1` 0.393 µM

What value of TGI has been reported for the following molecule? `N#Cc1c(Cl)cc(Cl)n2c1nc1ccccc12` 6.65 µM

Give its TGI value. Item: `O=C(/C=C\c1ccc(NCc2ccc(C(=O)O)cc2)cc1)CCl` 31.6 µM

Any idea what TGI was measured for CC(=O)O[C@]12CCCCCC1C1(O)C(O)CCCC[C@H]12 (stereo partly specified) ? > 100 µM

Name the reported TGI value associated with the molecule `O=C1O[C@H](c2ccc3c(c2)OCO3)[C@H]2CO[C@@H](c3ccc4c(c3)OCO4)[C@@H]12` > 100 µM

Tell me the measured TGI of Clc1ccc2c(c1)-c1c3c(nn1-c1ccccc1)-c1ccccc1SC3O2 (stereo unspecified) , please. > 100 µM

Looking for the measured TGI of S=C1OC2CCCC[C@H]2O1 (stereo partly specified) , can you help? > 100 µM

For the molecule shown here, `ClCC[N+]12CC[N+](CCCl)(CC1)C2` , give the reported TGI. > 100 µM

Endpoint output: TGI of CC(C)CC(O)P(=O)(O)O (stereo unspecified) . Value? > 100 µM

Please give the measured TGI for this molecule: `O=c1c2cc(Br)cc(Br)c2nc(CCCl)n1CCO` > 100 µM

// lookup TGI for `C=CCc1ccc(Oc2cc(CC=C)c3c(c2O)O[C@@H](CO)[C@H]3c2ccc(O)c(-c3cc(CC=C)ccc3O)c2)cc1` > 100 µM

Requested read-out: TGI. Entry: COc1cc(NC(C)CCCN)c2nccc(C)c2c1 (stereo unspecified) 74.6 µM

Look at this molecule and give its reported TGI. `CC(=O)[C@@]1(O)CC[C@H]2[C@@H]3C[C@H](C)C4=CC(=O)C=C[C@]4(C)[C@@]3(F)[C@@H](O)C[C@@]21C` > 100 µM

Consider the molecule `CN1[C@@H]2C[C@@H](OC(=O)[C@H](CO)c3ccccc3)C[C@H]1[C@@H]1O[C@@H]12` and give its measured TGI. > 100 µM

I'd like to know its TGI. The molecule in question is `Cc1cc(C(C)(C)CC(C)(C)C)ccc1OCCOCC[N+](C)(C)Cc1ccccc1` 11.3 µM

Give its TGI value. Item: `O=C(CN(c1ccccc1)c1ccccc1)n1nnc2ccccc21` > 100 µM

State the recorded TGI for this entry: `COc1ccc(NS(=O)(=O)c2ccc(NC(NC(=O)CC(C)C)(C(F)(F)F)C(F)(F)F)cc2)nn1` > 100 µM

Find the recorded TGI belonging to COc1ccc(C2OC(c3ccncc3)=NN2C)cc1OC (stereo unspecified) and report it. > 100 µM

GET /values?readout=TGI&item= `CC(C)(C[C@H]1CN(S(=O)(=O)c2cccc(C(F)(F)F)c2)c2cc(-c3cc(F)cc(OC(F)F)c3)ccc2O1)C(=O)O` 23.1 µM

Report TGI for `O=c1cccc(C#CC#CC2=CCCCC2)o1` please. 10 µM

I'd like to know its TGI. The molecule in question is `O=C1CCCC[C@H]1[C@H]1CCC[C@@H]([C@H]2CCCCC2=O)C1=O` > 100 µM

Item under review: `O=C1CSC(/C(=N/Nc2ccccc2)c2nc3ccccc3[nH]2)=N1` . Reported TGI? > 100 µM

If you can, please state the reported TGI value of `Cn1c(COC(=O)Nc2ccccc2)c(COC(=O)Nc2ccccc2)c2ccc3cc(Cl)c(Cl)cc3c21` . 29 µM

Any idea what TGI was measured for `Cc1ccc2[nH]c(O)c(N=Nc3ccc(S(N)(=O)=O)cc3)c2c1` ? > 25 µM

Please look up its TGI: O=C1c2ccccc2C2(c3ccc(Cl)cc3)N[C@H]3CCCC[C@@H]3N12 (stereo partly specified) > 100 µM

So what does the record say about TGI for `O=C(O)[C@H](NS(=O)(=O)c1ccc([N+](=O)[O-])cc1)c1ccccc1` ? > 100 µM

Requested field: TGI. Item: C=C(Cl)C(C)(Cl)CCC(Br)C(C)(C)Cl (stereo unspecified) 31.8 µM

May I ask what TGI has been recorded for `C=C1C(=O)C=C[C@]2(C)CC[C@H]3C(=C)C(=O)O[C@@H]3[C@@H]12` ? 9.59 µM

Recorded TGI for `CC(C)=CCNc1ncnc2c1ncn2CCC#N` , please? > 100 µM

What measured TGI goes with `Cn1c(=O)c(Cc2ccccc2F)cc2cnc(NC3CCOCC3)nc21` ? > 25 µM

Which TGI is reported for this molecule? `O=C1CCC(O)=C1N=Nc1ccccc1` > 100 µM

I am curious: what TGI value has been reported for `O=c1c2ccccc2c(=O)c2c1[nH]c1c(-c3ccccc3)c(-c3ccccc3)c(=O)c12` ? 3.62 µM

Which measured TGI value corresponds to `S=C(Nc1ccc2c(c1)oc1ccccc12)c1cccnc1` ? > 100 µM

Look up TGI: `Nc1nc(Cl)cc(NCC2(CO)CCCC2)n1` > 100 µM

Value lookup for TGI; key = `O=c1oc2ccc([N+](=O)[O-])cc2c(Nc2ccc3c(c2)Oc2ccccc2O3)c1[N+](=O)[O-]` > 100 µM

What TGI value was documented for this molecule, NC(CCC(=O)NC(CSCC1C(=O)Nc2ccccc21)C(=O)NCC(=O)O)C(=O)O (stereo unspecified) ? 20 µM

Which measured TGI value corresponds to CC(C)(C)c1cc(C(O)(C(F)(F)F)C(F)(F)F)c2c(c1)C(C(F)(F)F)(C(F)(F)F)OC(C(C)(C)C)N2 (stereo unspecified) ? 10.2 µM

Would you mind telling me what TGI value was observed for `COc1ccc2c(cnc3c4cc(OC)c(OC)cc4ccc23)c1` ? > 100 µM

# TGI lookup, item `COc1cc(/C=C(\C#N)c2ccccc2)cc(OC)c1` > 100 µM

Look up TGI: `O=[N+]([O-])/C(C(Cl)=C(Cl)Cl)=C(\N1CCCCC1)n1cncn1` 32.7 µM
